Assay Target: human 5-HT6 receptor (Homo sapiens (Human), UniProt P50406)
Sequence (P50406 whole entry): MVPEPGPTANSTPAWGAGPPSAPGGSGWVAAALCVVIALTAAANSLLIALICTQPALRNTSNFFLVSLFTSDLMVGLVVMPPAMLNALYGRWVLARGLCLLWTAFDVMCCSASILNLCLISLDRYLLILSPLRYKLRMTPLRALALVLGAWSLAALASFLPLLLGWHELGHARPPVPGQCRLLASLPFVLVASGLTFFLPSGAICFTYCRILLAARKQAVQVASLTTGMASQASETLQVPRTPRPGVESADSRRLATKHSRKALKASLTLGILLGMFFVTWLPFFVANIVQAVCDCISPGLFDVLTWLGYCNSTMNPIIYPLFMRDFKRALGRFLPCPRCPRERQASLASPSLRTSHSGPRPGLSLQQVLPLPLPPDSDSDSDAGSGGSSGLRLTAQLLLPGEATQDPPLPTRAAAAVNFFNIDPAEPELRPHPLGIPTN
Method Description: radioligand binding assay (SPA format), [N-methyl-3H]-LSD
Condition Info: read-out: human 5HT6 Ki; human 5-HT6 receptor membranes, 10 nM [3H]-LSD
Structures can show the parent of a compound that is named as a salt.
Measurement Label: pKi
Numbers only, as −log10 of the molar value.

The following compounds have reported results that may help.
COc1cc(S(=O)(=O)n2ccc3ccc(C#N)cc32)cc2c3c(n(C)c12)CC1CCC3N1 (stereo not drawn) [Example 242]
8.62
Cn1c2c(c3cc(S(=O)(=O)c4ccc5sccc5c4)ccc31)C1CCC(C2)N1 (stereo not drawn) [Example 167]
8.12
COc1cc(S(=O)(=O)c2cn(C)c3ccccc23)cc2c3c(n(C)c12)CC1CCC3N1 (stereo not drawn) [Example 224]
9.00
Cn1c2c(c3cc(S(=O)(=O)c4ccccc4F)cc(O)c31)C1CCC(C2)N1 (stereo not drawn) [Example 210]
9.00
Cn1c2c(c3cc(S(=O)(=O)n4ccc5ccc(C#N)cc54)ccc31)C1CCC(C2)N1 (stereo not drawn) [Example 200]
9.12

// each listed compound needs a value for pKi
1. COc1cc(S(=O)(=O)c2cccc(F)c2)cc2c3c(n(C)c12)CC1CCC3N1 (stereo not drawn) [Example 222]
2. Cn1c2c(c3cc(S(=O)(=O)n4ccc5c(F)cccc54)ccc31)C1CCC(C2)N1 (stereo not drawn) [Example 64, hydrochloride]
3. Cn1c2c(c3cc(S(=O)(=O)c4cc(F)c5[nH]ccc5c4)ccc31)C1CCC(C2)N1 (stereo not drawn)

### Response
1: 9.25; 2: 8.25; 3: 9.48

Dear colleague, could you please provide pKi for the compounds listed below?
1. CN1C2CCC1c1c(n(C)c3ccc(S(=O)(=O)c4ccc5[nH]ccc5c4)cc13)C2 (stereo not drawn) [Example 183]
2. Cc1cc(S(=O)(=O)c2ccccc2)cc2c3c(n(C)c12)CC1CCC3N1.Cl (stereo not drawn) [Example 71, hydrochloride]
3. CC(C)n1ccc2cc(S(=O)(=O)c3ccc4c(c3)c3c(n4C)CC4CCC3N4)ccc21 (stereo not drawn)

### Response
1. 9.38
2. 8.48
3. 8.36

* * *

Assay Target: human 5-HT6 receptor (Homo sapiens (Human), UniProt P50406)
Method Description: radioligand binding assay (SPA format), [N-methyl-3H]-LSD
Condition Info: read-out: human 5HT6 Ki; human 5-HT6 receptor membranes, 10 nM [3H]-LSD
Consider the following compounds; for each one, report its pKi.
Answers are plain numbers, as −log10 of the molar value.

Cn1c2c(c3cc(S(=O)(=O)c4cccc5ccncc45)ccc31)C1CCC(C2)N1 (stereo not shown) [Example 131]
7.89
Cl.Cn1c2c(c3cc(S(=O)(=O)c4cc(Cl)cc(Cl)c4)ccc31)C1CCC(C2)N1 (stereo not shown) [Example 54, hydrochloride]
8.00
Cl.Cn1c2c(c3cc(S(=O)(=O)c4ccccc4)cc(Cl)c31)C1CCC(C2)N1 (stereo not shown) [Example 82, hydrochloride]
7.66

### Prompt pKi of Cc1cn(S(=O)(=O)c2ccc3c(c2)c2c(n3C)CC3CCC2N3)c2ccccc12 (stereo not shown) [Example 201] on human 5-HT6 receptor (Homo sapiens (Human), UniProt P50406)?
### Response 8.85

* * *

Could you please report measured pKi for the items listed next?
Assay Target: human 5-HT6 receptor (Homo sapiens (Human), UniProt P50406)
Method Description: radioligand binding assay (SPA format), [N-methyl-3H]-LSD
Condition Info: read-out: human 5HT6 Ki; human 5-HT6 receptor membranes, 10 nM [3H]-LSD; hydrochloride
Counter-ions that a name gives are not always drawn.
Give bare numbers, as −log10 of the molar value.

Sample records with pKi:
CC(C)n1c2c(c3cc(S(=O)(=O)c4ccccc4)ccc31)C1CCC(C2)N1.Cl (centres unmarked) [Example 87, hydrochloride]
6.46
Cn1c2c(c3cc(S(=O)(=O)c4cccc(Cl)c4)ccc31)C1CCC(C2)N1 (centres unmarked) [Example 36, hydrochloride]
8.74
Cl.Cn1c2c(c3cc(S(=O)(=O)c4ccc(C#N)cc4)ccc31)C1CCC(C2)N1 (centres unmarked) [Example 30, hydrochloride]
6.39

// for each compound in input: emit pKi
1. CCOc1cc(S(=O)(=O)c2ccccc2)cc2c3c(n(C)c12)CC1CCC3N1.Cl (centres unmarked) [Example 84, hydrochloride]
2. Cc1cn(S(=O)(=O)c2ccc3c(c2)c2c(n3C)CC3CCC2N3)c2ccccc12.Cl (centres unmarked) [Example 68, hydrochloride]

### Response
[9.00, 8.92]
